I'd appreciate it if you could supply EC50 values for the items below.
test system: H9C2; assay: Cell death protection, LDH release after RSL3; assay type: cell-based; settings: Rattus norvegicus, H9C2, RSL3 0.5 μM, 24 hours

Documented EC50 of CS(=O)(=O)N1CCC(Nc2cc(CN3CCS(=O)(=O)CC3)cc3cc(-c4ccccc4)[nH]c23)CC1 [Example 22] : 0.03 to 0.1 µM

Documented EC50 of Cc1cc(NC2CCCC2)c2[nH]c(-c3ccccc3)cc2c1 [Example 33] : ≤ 0.03 µM

Documented EC50 of O=S1(=O)CCN(Cc2cc(NCC3CCOCC3)c3[nH]c(-c4ccccc4)cc3c2)CC1 [Example 6] : ≤ 0.03 µM

Documented EC50 of CCOC(=O)c1cc(NC2CCCC2)c2[nH]c(-c3ccccc3)cc2c1 [Example 2] : ≤ 0.03 µM

Documented EC50 of O=S1(=O)CCN(Cc2cc(NC3CCOCC3)c3[nH]c(-c4ccccc4)cc3c2)CC1 [Example 1] : 0.03 to 0.1 µM

Source: patent US20240269145A1
